subjectOfTest: T1, recombinant human activated Factor VII (FVIIa) (human, UniProt P08709 61-212; P08709 213-466, ten glutamate residues of the Gla domain may be gamma-carboxylated)
T1 construct: chains tethered by a disulfide bond; also called Factor VIIa; rFVIIa
T1 sequence 1: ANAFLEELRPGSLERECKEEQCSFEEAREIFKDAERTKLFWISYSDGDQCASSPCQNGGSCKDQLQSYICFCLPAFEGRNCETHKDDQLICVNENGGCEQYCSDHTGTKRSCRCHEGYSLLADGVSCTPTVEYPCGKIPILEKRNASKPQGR
T1 sequence 2: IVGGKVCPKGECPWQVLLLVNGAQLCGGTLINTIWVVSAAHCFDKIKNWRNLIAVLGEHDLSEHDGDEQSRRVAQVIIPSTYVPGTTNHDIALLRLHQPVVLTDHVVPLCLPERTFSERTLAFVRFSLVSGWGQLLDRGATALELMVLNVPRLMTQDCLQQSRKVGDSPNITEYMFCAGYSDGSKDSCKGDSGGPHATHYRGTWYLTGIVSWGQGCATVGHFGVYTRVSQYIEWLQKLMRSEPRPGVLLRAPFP
testMethodNotes: BLI (Fortebio)
assayEndpoint: Kd (nM)
Supply the numeric figure in nM, leaving out any unit text.

| binder | Kd / nM |
| --- | --- |
| VH SEQ ID NO 522 / VL SEQ ID NO 438 (antibody, IgG4, V domains shown, humanized 11F2; IgG4 S228P/kappa) VH: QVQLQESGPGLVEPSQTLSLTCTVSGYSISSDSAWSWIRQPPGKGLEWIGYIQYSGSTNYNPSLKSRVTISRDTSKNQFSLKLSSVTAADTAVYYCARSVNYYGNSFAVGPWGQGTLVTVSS VL: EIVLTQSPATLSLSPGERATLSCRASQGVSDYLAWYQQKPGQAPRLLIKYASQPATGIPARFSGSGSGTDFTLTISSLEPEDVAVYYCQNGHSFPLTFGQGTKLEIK | 57 |
| VH SEQ ID NO 618 / VL SEQ ID NO 502 (antibody, IgG4, V domains shown, humanized 11F2; IgG4 S228P/kappa) VH: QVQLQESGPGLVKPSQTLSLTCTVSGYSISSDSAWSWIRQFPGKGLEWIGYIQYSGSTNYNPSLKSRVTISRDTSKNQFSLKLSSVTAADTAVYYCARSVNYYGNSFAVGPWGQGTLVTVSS VL: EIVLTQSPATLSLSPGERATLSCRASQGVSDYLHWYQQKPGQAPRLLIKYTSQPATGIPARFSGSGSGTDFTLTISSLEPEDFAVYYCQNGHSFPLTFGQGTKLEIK | 1.2 |
| VH SEQ ID NO 610 / VL SEQ ID NO 462 (antibody, IgG4, V domains shown, humanized 11F2; IgG4 S228P/kappa) VH: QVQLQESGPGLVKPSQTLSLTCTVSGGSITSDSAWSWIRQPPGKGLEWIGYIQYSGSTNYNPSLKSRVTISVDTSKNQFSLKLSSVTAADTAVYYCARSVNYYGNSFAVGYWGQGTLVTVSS VL: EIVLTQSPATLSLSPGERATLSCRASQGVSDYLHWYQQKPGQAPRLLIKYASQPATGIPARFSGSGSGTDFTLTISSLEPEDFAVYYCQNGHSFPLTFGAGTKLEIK | 17 |

[Q] Recorded Kd for VH SEQ ID NO 650 / VL SEQ ID NO 326 (antibody, IgG4, V domains shown, humanized 11F2; IgG4 S228P/kappa) VH: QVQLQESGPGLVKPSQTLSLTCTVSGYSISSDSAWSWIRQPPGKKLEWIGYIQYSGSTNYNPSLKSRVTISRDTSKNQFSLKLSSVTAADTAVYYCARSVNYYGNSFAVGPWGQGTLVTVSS VL: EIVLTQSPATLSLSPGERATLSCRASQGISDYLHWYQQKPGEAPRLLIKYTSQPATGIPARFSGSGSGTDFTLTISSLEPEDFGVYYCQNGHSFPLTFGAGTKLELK , please?
[A] 1.1

[Q] Recorded Kd for VH SEQ ID NO 538 / VL SEQ ID NO 326 (antibody, IgG4, V domains shown, humanized 11F2; IgG4 S228P/kappa) VH: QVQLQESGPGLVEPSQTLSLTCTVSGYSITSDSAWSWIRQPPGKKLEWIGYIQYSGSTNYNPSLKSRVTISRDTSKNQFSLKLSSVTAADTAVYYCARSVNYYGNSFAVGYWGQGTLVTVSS VL: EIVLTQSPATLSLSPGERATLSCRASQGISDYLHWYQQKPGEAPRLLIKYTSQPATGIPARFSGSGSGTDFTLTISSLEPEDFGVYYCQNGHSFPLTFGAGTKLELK , please?
[A] 0.58
